- test_description: Kinetic solubility analysis (CLND)
- Format: physicochemical
- condition_description: 24.2 °C, kinetic from dmso stock, from DMSO stocks, 1.0% DMSO, 24-hour incubation at ambient temperature, medium (0.1N HCl or PBS 7.4) not stated
reported_metric: solubility kinetic at 24 h

1. C#C[C@]1(COC(=O)CCCCCCCCCCCCC)O[C@@H](n2cnc3c(N)nc(F)nc32)C[C@@H]1O [Compound 8] ... < 1 µM
2. C#C[C@]1(COC(=O)OCCCCCCCCCCCC)O[C@@H](n2cnc3c(N)nc(F)nc32)C[C@@H]1OC(=O)OCCCCCCCCCCCC [Compound 13] ... < 1 µM
3. C#C[C@]1(COC(=O)CC(C)(C)c2c(C)cc(C)cc2OC(C)=O)O[C@@H](n2cnc3c(N)nc(F)nc32)C[C@@H]1O [Compound 14] ... 37 µM
4. C#C[C@]1(COC(=O)CCCCCCCCCCCCC)O[C@@H](n2cnc3c(N)nc(F)nc32)C[C@@H]1OC(=O)CCCCCCCCCCCCC [Compound 10] ... < 1 µM
5. C#C[C@]1(COC(=O)CCCCCCCCCCCCCCCCC)O[C@@H](n2cnc3c(N)nc(F)nc32)C[C@@H]1O [Compound 11] ... < 1 µM
6. C#C[C@]1(COC(=O)OCCCCCCCCCCCC)O[C@@H](n2cnc3c(N)nc(F)nc32)C[C@@H]1O [Compound 12] ... < 1 µM
7. C#C[C@]1(COC(=O)CCCCCC)O[C@@H](n2cnc3c(N)nc(F)nc32)C[C@@H]1OC(=O)CCCCCC [Compound 17] ... < 1 µM
8. C#C[C@]1(CO)O[C@@H](n2cnc3c(N)nc(F)nc32)C[C@@H]1OC(=O)CC(C)(C)c1c(C)cc(C)cc1OC(C)=O [Compound 15] ... 25.1 µM
9. C#C[C@]1(CO)O[C@@H](n2cnc3c(N)nc(F)nc32)C[C@@H]1OC(=O)CCCCCCCCCCCCC [Compound 9] ... < 1 µM
10. C#C[C@]1(CO)O[C@@H](n2cnc3c(N)nc(F)nc32)C[C@@H]1OC(=O)c1ccccc1COC(=O)CCCCCCCCCCCCCCC [Compound 6] ... < 1 µM
11. C#C[C@]1(COC(=O)CC(C)(C)c2c(C)cc(C)cc2OC(C)=O)O[C@@H](n2cnc3c(N)nc(F)nc32)C[C@@H]1OC(=O)CC(C)(C)c1c(C)cc(C)cc1OC(C)=O [Compound 16] ... < 1 µM
12. C#C[C@]1(COC(=O)c2ccccc2COC(=O)CCCCCCCCCCCCCCC)O[C@@H](n2cnc3c(N)nc(F)nc32)C[C@@H]1OC(=O)c1ccccc1COC(=O)CCCCCCCCCCCCCCC [Compound 7] ... 2 µM
13. C#C[C@]1(COC(=O)C(C)C)O[C@@H](n2cnc3c(N)nc(F)nc32)C[C@@H]1OC(=O)C(C)C [Compound 1] ... 6.6 µM

###

- test_description: Cytotoxicity assay in MT-4 cells
- Type: cell-based
- condition_description: human; uninfected MT-4 cells, 5 days incubation, Cell Titer Glo
reported_metric: CC50 at 5 days

1. C#C[C@]1(COC(=O)CC(C)(C)c2c(C)cc(C)cc2OC(C)=O)O[C@@H](n2cnc3c(N)nc(F)nc32)C[C@@H]1O ... > 21.6 µM
2. C#C[C@]1(COC(=O)CCCCCC)O[C@@H](n2cnc3c(NC(=O)CCCCCC)nc(F)nc32)C[C@@H]1OC(=O)CCCCCC ... > 10.1 µM
3. C#C[C@]1(COC(=O)c2ccccc2COC(=O)CCCCCCCCCCCCCCC)O[C@@H](n2cnc3c(N)nc(F)nc32)C[C@@H]1O ... > 50 µM
4. C#C[C@]1(CO)O[C@@H](n2cnc3c(N)nc(F)nc32)C[C@@H]1OC(=O)CC(C)(C)c1c(C)cc(C)cc1OC(C)=O ... 11.8 µM
